Every entry's value here was drawn from the supplement of paper PMC9112550.

Tested on: Escherichia coli TOP10;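 note: peptides expressed intracellularly from a pBAD plasmid library in pooled LB shake-flask culture, induced with 0.3% L-arabinose, DNA abundance read by NGS, three biological replicates, DESeq2 with apeglm shrinkage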
Experiment: shrunken log2 fold change of peptide-encoding DNA abundance (4.5 h post-induction vs induction); higher = less antimicrobial activity (less host growth inhibition)
Details: time post-induction: 4.5 h; library: site-saturation at positions 5, 18, 19, 20
Is shrunken log2 fold change at least 0.007? Then t. If not, f.

{"primary sequence": "RRIRSRPPRLPRPRPRPKRKPRP", "class label": "t"}
{"primary sequence": "RRIRVRPPRLPRPRPRPTELPRP", "class label": "t"}
{"primary sequence": "RRIRDRPPRLPRPRPRPSFVPRP", "class label": "f"}

Then this sequence:
input: Could you verify whether the entry `RRIRHRPPRLPRPRPRPRKEPRP` shows shrunken log2 fold change of no less than 0.007?
output: f
